- Target system: Anoctamin-1 (Homo sapiens)
- Sequence (Q5XXA6 whole entry): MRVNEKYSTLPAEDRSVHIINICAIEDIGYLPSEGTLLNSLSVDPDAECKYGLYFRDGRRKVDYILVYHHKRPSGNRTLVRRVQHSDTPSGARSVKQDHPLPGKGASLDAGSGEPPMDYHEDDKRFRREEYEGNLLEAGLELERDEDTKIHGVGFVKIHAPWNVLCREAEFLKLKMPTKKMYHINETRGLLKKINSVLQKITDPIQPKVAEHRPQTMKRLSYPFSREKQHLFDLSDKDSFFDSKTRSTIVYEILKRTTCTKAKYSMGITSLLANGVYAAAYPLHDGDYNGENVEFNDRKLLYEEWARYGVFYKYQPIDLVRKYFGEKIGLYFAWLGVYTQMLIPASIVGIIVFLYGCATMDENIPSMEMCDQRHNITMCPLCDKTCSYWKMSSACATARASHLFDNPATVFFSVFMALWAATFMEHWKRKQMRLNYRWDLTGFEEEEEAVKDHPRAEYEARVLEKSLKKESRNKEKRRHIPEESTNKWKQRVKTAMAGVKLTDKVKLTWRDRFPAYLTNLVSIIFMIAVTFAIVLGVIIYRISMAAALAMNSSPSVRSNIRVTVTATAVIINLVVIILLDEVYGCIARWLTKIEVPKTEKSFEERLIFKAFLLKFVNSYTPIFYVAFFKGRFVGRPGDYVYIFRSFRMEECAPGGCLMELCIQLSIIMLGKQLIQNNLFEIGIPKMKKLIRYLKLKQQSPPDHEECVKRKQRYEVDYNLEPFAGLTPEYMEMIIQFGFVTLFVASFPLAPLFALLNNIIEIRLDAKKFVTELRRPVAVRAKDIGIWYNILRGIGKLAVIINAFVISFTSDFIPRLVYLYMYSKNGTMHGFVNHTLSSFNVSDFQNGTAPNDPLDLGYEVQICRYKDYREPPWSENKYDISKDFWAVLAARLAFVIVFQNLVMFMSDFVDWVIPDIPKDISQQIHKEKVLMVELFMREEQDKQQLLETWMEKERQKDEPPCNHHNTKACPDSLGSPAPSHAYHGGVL
- Measurement notes: Inhibition of YFP tagged ANO1 (unknown origin) expressed in FRT cells incubated for 24 hrs by fluorescence plate reader assay
Measured pIC50, listed per entry.
Convention used: pIC50 is expressed as -log10 of the molar concentration.

Kindly state the measured pIC50 obtained for O=C(Nc1scc(-c2ccc(Cl)cc2)c1C(=O)O)c1cc(F)ccc1Br with Anoctamin-1 (Homo sapiens).
6.02

Moving on to the next compound: O=C(Nc1scc(-c2ccc(Cl)cc2)c1C(=O)O)c1ccccc1OC(F)(F)F
5.25

Moving on to the next compound: O=C(Nc1ccc([N+](=O)[O-])cc1Cl)c1cc(Cl)ccc1O [NICLOSAMIDE]
7.55

Moving on to the next compound: O=C(Nc1scc(-c2ccc(Cl)cc2)c1C(=O)O)c1cc(Cl)ccc1I
4.92

Moving on to the next compound: O=C(Nc1scc(-c2ccc(Cl)cc2)c1C(=O)O)c1ccncc1
5.20

Moving on to the next compound: Cc1ccsc1C(=O)Nc1scc(-c2ccc(Cl)cc2)c1C(=O)O
5.51

Moving on to the next compound: COc1ccccc1/N=N/C(=O)COc1ccc(Cl)cc1C
5.97

Moving on to the next compound: O=C(Nc1scc(-c2ccc(Cl)cc2)c1C(=O)O)c1cc(Cl)ccc1Br
7.54

Moving on to the next compound: CC(=O)Oc1ccccc1C(=O)Nc1ncc([N+](=O)[O-])s1 [NITAZOXANIDE]
6.37

* * *

- Measurement notes: Plasma concentration in C57BL/6 mouse at 40 mg/kg,IG measured after 0.25 hrs by HPLC analysis
- Format: ADME, organism-based
- Assay context: po
Assay readout: concentration at 0.25 h (µg/mL)
Write the number in µg/mL without appending the unit.

Requested field: concentration at 0.25 h. Item: O=C(Nc1scc(-c2ccc(Cl)cc2)c1C(=O)O)c1cc(F)ccc1F
97.7

* * *

- Measurement notes: Tmax in C57BL/6 mouse at 40 mg/kg,iv measured upto 24 hrs by HPLC-MS/MS analysis
- Type: ADME, organism-based
- Assay context: in vivo
Assay readout: Tmax (min)
Write the number in min without appending the unit.

Requested field: Tmax. Item: O=C(Nc1scc(-c2ccc(Cl)cc2)c1C(=O)O)c1cc(F)ccc1F
4.8

* * *

- Target system: Anoctamin-1 (Homo sapiens)
- Measurement notes: Inhibition of YFP tagged ANO1 (unknown origin) expressed in FRT cells incubated for 24 hrs by fluorescence plate reader assay
Binarize IC50 at 7 µM; below is yes (1), at or above is no (0).

Known results for compounds:
- Mol smiles: "Cc1ccc(Cl)cc1C(=O)Nc1scc(-c2ccc(Cl)cc2)c1C(=O)O"
  Category label: "no (0)"
- Mol smiles: "COc1ccc(Cl)cc1C(=O)Nc1scc(-c2ccc(Cl)cc2)c1C(=O)O"
  Category label: "no (0)"
- Mol smiles: "O=C(Nc1scc(-c2ccc(Cl)cc2)c1C(=O)O)c1cnccn1"
  Category label: "yes (1)"
- Mol smiles: "O=C(Nc1scc(-c2ccc(Cl)cc2)c1C(=O)O)c1cccc(Cl)c1Cl"
  Category label: "yes (1)"
- Mol smiles: "O=C(Nc1scc(-c2ccc(Cl)cc2)c1C(=O)O)c1cc(I)ccc1Cl"
  Category label: "no (0)"

Please indicate whether the reported IC50 of O=C(Nc1scc(-c2ccc(Cl)cc2)c1C(=O)O)c1cc(F)ccc1F is strictly below 7 µM.
yes (1)

Moving on to the next compound: COc1ccc(Cl)c(C(=O)Nc2scc(-c3ccc(Cl)cc3)c2C(=O)O)c1
no (0)

Moving on to the next compound: Cc1ccc(Cl)c(C(=O)Nc2scc(-c3ccc(Cl)cc3)c2C(=O)O)c1
yes (1)

Moving on to the next compound: O=C(Nc1scc(-c2ccc(Cl)cc2)c1C(=O)O)c1cc(F)ccc1I
yes (1)

Moving on to the next compound: O=C(Nc1scc(-c2ccc(Cl)cc2)c1C(=O)O)c1c(Cl)cccc1Cl
no (0)

Moving on to the next compound: O=C(Nc1scc(-c2ccc(Cl)cc2)c1C(=O)O)c1cccc2c1OCCO2
no (0)
